# Tested on: SK-MEL-2 melanoma
# testName: NCI-60 one-dose screen, 48 h (100 = growth as untreated, 0 = no growth, -100 = all killed)
# runConditions: 10 µM unless noted
The panel holds about 83,000 compounds, 20% with a hit somewhere; the sample as a whole holds those more often.
Exercise: for every item that follows, state its recorded growth.
Give bare numbers, in %.

Consider the worked cases shown below.
                                   molecule  reportedmetric  resultvalue
0          Cc1ccccc1N1CCN(C(=S)c2ccccc2)CC1          growth           85
1  Cc1cc(C(=O)CCCC(=O)c2cc(C)c(O)c(C)c2)cc(C)c1O          growth          101
2   Cc1cc2oc(/C=C/c3ccccc3)cc(=O)c2c(C)c1Cl          growth          103
3  O=C(c1ccc(Br)cc1)C(Br)C(c1ccc(Cl)cc1)C(c1ccccc1)[N+](=O)[O-] (centres undefined)          growth          110
4  COc1ccccc1S(=O)(=O)Nc1ccc2c3c(cc(CCC(=O)NCCCCNc4cccc5c4C(=O)N(C4CCC(=O)NC4=O)C5=O)cc13)C(=O)N2C (centres undefined)          growth           11
5     O=C1/C(=C/c2cccc(Br)c2)COc2ccc(O)cc21          growth         79.2
6   Nc1nc(N(Cc2ccccc2)c2ccccc2)c2cn[nH]c2n1          growth          111
7  Cc1ccc(S(=O)(=O)OCC#CCOS(=O)(=O)c2ccc(C)cc2)cc1          growth         66.4

Inquiry: What growth value was documented for this molecule, `COC12C=C/C(=C(/C(=O)OCc3cncnc3)C(=O)CCCCCCCCC3(OC)C=C/C(=C(/C(=O)OCc4cncnc4)C(=O)CCCCCCCC1)O3)O2` ?
Reply text: -13.1

FYI, the data here is from PubChem BioAssay (NCI).
